Experimental Protocol: Micafungin plasma pharmacokinetics in neonates and young infants (HPLC)
Format: in vivo, human
Settings: human, iv, age 0 to ≤28 days (n = 16), 8-15 mg/kg/day iv, mean ± SD, SD, read-out: Clearance/weight (converted)
*1 amine or outer side, *2 acyl side, *3 side chain or, on linkers, in order; H or OH if unused. Where a SMILES comes first, the peptide text is derived from it. Bridges are numbered along the chain shown (N, C = ends). [ ]: non-standard residue; d: D form. The star is where a group is joined. hTyr(3S-OH,4S-OH,3'-OSO3H) = N[C@H](C(=O)O)[C@H](O)[C@@H](O)c1ccc(O)c(OS(=O)(=O)O)c1; Orn(4R-OH,5R-OH) = O=C([C@H](C[C@@H](O)[C@@H](O)N[*:3])N[*:1])[*:2]; Pro(3S-OH,4S-Me) = C[C@H]1CN[C@H](C(=O)O)[C@H]1O; X1 = CCCCCOc1ccc(-c2cc(-c3ccc(C(=O)*)cc3)no2)cc1; Gln(3R-OH) = NC(=O)C[C@@H](O)[C@H](N)C(=O)O; Hyp = O=C(O)[C@@H]1C[C@@H](O)CN1
Assay Metric: clearance (mL/min/kg)
Report the figure in mL/min/kg without appending any unit label.

[in] Looking for the measured clearance of CCCCCOc1ccc(-c2cc(-c3ccc(C(=O)N[C@H]4C[C@@H](O)[C@@H](O)NC(=O)[C@@H]5[C@@H](O)[C@@H](C)CN5C(=O)[C@H]([C@H](O)CC(N)=O)NC(=O)[C@H]([C@H](O)[C@@H](O)c5ccc(O)c(OS(=O)(=O)O)c5)NC(=O)[C@@H]5C[C@@H](O)CN5C(=O)[C@H]([C@@H](C)O)NC4=O)cc3)no2)cc1 [micafungin] (X1-[Orn(4R-OH,5R-OH)]T[Hyp][hTyr(3S-OH,4S-OH,3'-OSO3H)][Gln(3R-OH)][Pro(3S-OH,4S-Me)]; lactam 1-C) , can you help?
[out] 0.6

These measurements were taken from paper PMC10051811.
